B1: GMCL1 (parent)
chain: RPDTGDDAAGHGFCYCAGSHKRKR

Variants of: B1
Assay: protein stability index of a GFP-peptide fusion (GPS, HEK-293T) (PSI 1-6); higher = more stable;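 note: lentivirally expressed fusions sorted by FACS into six bins by GFP to DsRed ratio, PSI derived from sequencing read proportions per bin multiplied by bin number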
Settings: c terminus: a fixed tail appended
property_name: protein stability index
Response field accepts a number only; no unit should be typed.

Previously resolved entries follow.
• A17Q = 3.02
• F13R = 2.94
• R22P = 2.79

Req: Dear colleague, I am looking for the recorded protein stability index of the following variant: `S19R`
Resp: 3.26

Req: Dear colleague, I am looking for the recorded protein stability index of the following variant: `A17L`
Resp: 2.59

Req: Dear colleague, I am looking for the recorded protein stability index of the following variant: `T4C`
Resp: 2.14

Req: Dear colleague, I am looking for the recorded protein stability index of the following variant: `D6S`
Resp: 2.97

Req: Dear colleague, I am looking for the recorded protein stability index of the following variant: `C16D`
Resp: 5.04

Req: Dear colleague, I am looking for the recorded protein stability index of the following variant: `G12E`
Resp: 2.9
